test: Cytotoxicity against mouse RAW264.7 cells assessed as inhibition of cell viability at 100 uM after 48 hrs by MTT assay; type: cell-based; settings: read-out: INH
Give condition met when the value for cytotoxicity at 48 h, 100 µM is at least 20%. Give condition not met when it is less.

• CCOC(=O)c1cc2cc(N3CCN(C(=O)C4CCN(C(=O)OC(C)(C)C)CC4)CC3)ccc2o1 = condition not met

Decide: cytotoxicity at 48 h, 100 µM of CCOC(=O)c1cc2cc(N3CCN(C(=O)Cc4ccc(OC)cc4)CC3)ccc2o1 >= 20%?
condition not met

Check the entry CCOC(=O)c1cc2cc(N3CCN(C(=O)c4ccc(C(F)(F)F)cc4)CC3)ccc2o1 : does cytotoxicity at 48 h, 100 µM equal or exceed 20%?
condition not met

Evaluate CCOC(=O)c1cc2cc(N3CCN(C(=O)CC4CCCCC4)CC3)ccc2o1 : cytotoxicity at 48 h, 100 µM at minimum 20%?
condition met

Could you tell me if the measured cytotoxicity at 48 h, 100 µM of CCOC(=O)c1cc2cc(N3CCN(C(=O)c4cccc(OC)c4)CC3)ccc2o1 reaches 20% or more?
condition not met

Is it the case that CCOC(=O)c1cc2cc(N3CCN(C(=O)Cc4ccc(Cl)cc4)CC3)ccc2o1 has cytotoxicity at 48 h, 100 µM reaching or exceeding 20%?
condition met

Is the recorded value of cytotoxicity at 48 h, 100 µM equal to or greater than 20% for this compound? CCOC(=O)c1cc2cc(N3CCN(C(=O)Cc4ccc(Br)cc4)CC3)ccc2o1
condition met

API: above_or_equal(metric=cytotoxicity at 48 h, 100 µM, cutoff=20%) for item CCOC(=O)c1cc2cc(N3CCN(C(=O)c4ccccc4OC(F)(F)F)CC3)ccc2o1
condition met

Check the entry CCOC(=O)c1cc2cc(N3CCN(C(=O)Cc4c(F)cc(F)cc4F)CC3)ccc2o1 : does cytotoxicity at 48 h, 100 µM equal or exceed 20%?
condition not met

Is cytotoxicity at 48 h, 100 µM for CCOC(=O)c1cc2cc(N3CCN(C(=O)c4ccccc4C(F)(F)F)CC3)ccc2o1 at or above 20%?
condition not met

Is the recorded value of cytotoxicity at 48 h, 100 µM equal to or greater than 20% for this compound? CCOC(=O)c1cc2cc(N3CCN(C(=O)c4c(Cl)cccc4Cl)CC3)ccc2o1
condition not met

Does the reported cytotoxicity at 48 h, 100 µM for CCOC(=O)c1cc2cc(N3CCN(C(=O)c4ccc(C5CCOCC5)cc4)CC3)ccc2o1 fall at or above the 20% mark?
condition not met

// inclusive: cytotoxicity at 48 h, 100 µM at least 20%? input: CCOC(=O)c1cc2cc(N3CCN(C(=O)Cc4ccc(F)cc4)CC3)ccc2o1
condition met

Check this compound for cytotoxicity at 48 h, 100 µM at or above 20%: CO[C@@H]1[C@@H](OC(N)=O)[C@@H](O)[C@H](Oc2ccc3c(O)c(NC(=O)c4ccc(O)c(CC=C(C)C)c4)c(=O)oc3c2C)OC1(C)C [NOVOBIOCIN]
condition not met

Quick check, cytotoxicity at 48 h, 100 µM >= 20%? CCOC(=O)c1cc2cc(N3CCN(C(=O)c4c(F)cccc4F)CC3)ccc2o1
condition not met

Hi team, for CCOC(=O)c1cc2cc(N3CCN(C(=O)CC(C)C)CC3)ccc2o1 , is the recorded cytotoxicity at 48 h, 100 µM at or above 20%?
condition not met

Dear colleague, could you confirm whether CCOC(=O)c1cc2cc(N3CCN(C(=O)c4cccc5ccccc45)CC3)ccc2o1 has cytotoxicity at 48 h, 100 µM at or above 20%?
condition not met

Exam item: decide whether the reported cytotoxicity at 48 h, 100 µM for CCOC(=O)c1cc2cc(N3CCN(C(=O)c4ncccc4C(F)(F)F)CC3)ccc2o1 is at least 20%.
condition not met

I'd appreciate it if you could say whether CCOC(=O)c1cc2cc(N3CCN(C(=O)c4cccnc4Cl)CC3)ccc2o1 has cytotoxicity at 48 h, 100 µM at least equal to 20%.
condition not met
